Where do the numbers come from? From PubChem BioAssay AID1159580.

Here, each record is paired with measured normalized growth data.
- experiment.description: chemical genetic growth profiling, strain panel (AID 1159580);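 also: tested at 20 µM; growth read once vehicle control cultures reached saturation at 30 °C; 1 = growth at the plate median or of vehicle wells; lower values mean less growth of the strain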
- reported.conditions: S. cerevisiae deletion strains, growth OD, locus YOR316C, strain cot1, hits give low values
Out of some 5,500 compounds screened, about 2,000 (36%) were called active. Another 18% or so got no clear call; they are omitted. The list shows a part of the results. Where a SMILES comes first, the peptide text is derived from it.
Simply state the number, no unit and no words.

COc1cc(C)c2c(=O)cc(-c3ccccc3)oc2c1 = 0.966
CC(=O)O[C@@H]1CC2C(C)(C)[C@H](O)CC[C@]2(C)C2CC[C@@]3(C)[C@H](c4ccoc4)OC(=O)C4OC43[C@@]21C (some centres not stated) = 0.977
CC(=O)O[C@@H]1CC2C(C)(C)C(=O)C3OC3[C@]2(C)C2CC[C@@]3(C)[C@H](c4ccoc4)OC(=O)C4OC43[C@@]21C (some centres not stated) = 1
CC(=O)N[C@@H](CC(=O)O)C(=O)N[C@@H](CCC(=O)O)C(=O)O (Ac-Asp-Glu-OH) = 0.997

Would you mind telling me what normalized growth value was observed for CC(=O)O[C@H]1C[C@@H](OC(C)=O)C(C)(C)C2C[C@@H](OC(C)=O)[C@]3(C)C(CC[C@@]4(C)[C@H](c5ccoc5)OC(=O)[C@H]5O[C@]543)[C@]21C (some centres not stated) ? 0.999

// next record CN(C)CCC(c1ccccc1)c1ccccn1 (configuration not stated) 1

// next record `O=C1CCCCC/C=C/CCCCCCCCO1` 0.999

// next record `O=NN(CCCl)C(=O)NCCCl` 0.989

// next record CC(=O)C1CC[C@H]2C3CC[C@H]4C[C@H](O)CC[C@]4(C)C3CC[C@]12C (some centres not stated) 1

// next record O=C(O)CCC1NCC2CC1CN1CCCCC21 (configuration not stated) 0.992

// next record `CC(=O)O[C@]1(C)CC[C@@]23CC1C(C)(C)[C@@H]2CC[C@H]3C` 1

// next record CC(=O)O[C@@H]1CC2C(C)(C)[C@@H](O)CC[C@]2(C)C2CC[C@@]3(C)[C@H](c4ccoc4)OC(=O)[C@H]4O[C@]43[C@@]21C (some centres not stated) 1.01

// next record `CCCNC(=O)NS(=O)(=O)c1ccc(Cl)cc1` 1

// next record COC(=O)[C@@H]1OC(=O)C2OC23[C@@]1(C)CCC1[C@]2(C)C(C[C@@H](O)[C@]13C)C(C)(C)[C@H](OC(C)=O)C[C@@H]2OC(C)=O (some centres not stated) 1

----------
- experiment.description: chemical genetic growth profiling, strain panel (AID 1159580);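 also: tested at 20 µM; growth read once vehicle control cultures reached saturation at 30 °C; 1 = growth at the plate median or of vehicle wells; lower values mean less growth of the strain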
- reported.conditions: S. cerevisiae deletion strains, growth OD, locus YKL067W, strain YNK1, hits give low values
Hit rate of the full screen: of about 5,500 compounds, about 2,000 (36%) were called active. Roughly 18% stayed inconclusive and do not appear here. This is one part of the list.
Lab note: compare normalized growth with 0.9, writing criterion met if less and criterion not met if equal or more.

Cc1cccc(N=NC(C(=O)C(F)(F)F)=C(O)c2cccs2)c1 = criterion not met
Clc1cccc(Nc2ncc(-c3ccc4c(c3)OCCCO4)s2)c1 = criterion not met
C/C(=N/NC(=S)NCC(C)(C)C)c1cc(F)cc(Cl)c1O = criterion not met
N/C(=N/O)c1ccc(Oc2ccc(C3SCCS3)cc2)c([N+](=O)[O-])c1 = criterion not met
FC(F)(F)c1cc(NC(=S)SCCSC(=S)Nc2cc(C(F)(F)F)cc(C(F)(F)F)c2)cc(C(F)(F)F)c1 = criterion met
CN(C)c1ccc(/C=C/c2ccc3ccccc3[n+]2C)cc1 = criterion met

In the following, a different molecule is considered.
Strictly below 0.9: is that where normalized growth of `O=C(Nc1cc(C(F)(F)F)cc(C(F)(F)F)c1)C(Cl)(Cl)Cl` sits? criterion not met
